In this section we review reported inhibition at 0.1 µM values for a set of molecules.
biological target: JAK2 (Homo sapiens); assay: experiment of inhibiting kinase activity (Caliper mobility shift assay), JAK2; type: biochemical; details: at 100 nM; read-out: inhibition rate JAK2

Before answering, review these 5 worked examples.
Quick one: inhibition at 0.1 µM of "CC(C)S(=O)(=O)c1ccccc1Nc1nc(Nc2ccc3c(c2)OCCN(C)CCO3)nc2[nH]ncc12" ?
40 to 79%

Quick one: inhibition at 0.1 µM of "CC(C)S(=O)(=O)c1ccccc1Nc1nc(Nc2ccc3c(c2)OCCOCCNCCO3)nc2[nH]ccc12" ?
> 80%

Quick one: inhibition at 0.1 µM of "CN1CCOc2ccc(Nc3nc(-c4ccc(C(=O)NCC#N)cc4)c4cc[nH]c4n3)cc2OCC1" ?
> 80%

Quick one: inhibition at 0.1 µM of "CN1CCOCCOc2cc(Nc3nc(Nc4ccccc4P(C)(C)=O)c4cc[nH]c4n3)ccc2OCC1" ?
> 80%

Quick one: inhibition at 0.1 µM of "CN1CCOCCOc2ccc(Nc3ncc(F)c(Nc4cccc(S(=O)(=O)NC(C)(C)C)c4)n3)cc2OCC1" ?
> 80%

Continuing:
Quick one: inhibition at 0.1 µM of "CC(C)S(=O)(=O)c1ccccc1Nc1nc(Nc2ccc3c(c2)OCCOCCN(C)CCO3)nc2[nH]ccc12" ?
> 80%

Quick one: inhibition at 0.1 µM of "CC(C)S(=O)(=O)c1ccccc1Nc1nc(Nc2ccc3c(c2)OCCOCCN(C)CCO3)nc2[nH]ncc12" ?
> 80%

Quick one: inhibition at 0.1 µM of "CN1CCOc2ccc(Nc3ncc(F)c(-c4ccc(C(=O)NCC#N)cc4)n3)cc2OCC1" ?
> 80%

Quick one: inhibition at 0.1 µM of "CN1CCOc2ccc(Nc3nc(-c4cn(C)c5ccccc45)c4cc[nH]c4n3)cc2OCC1" ?
40 to 79%

###

system: MV-4-11 cells; test: CDK9 cell activity test (Cell Titer-GLO cell growth inhibition), MV-4-11; format: cell-based; details: Homo sapiens, MV4-11, 72 hours
In this section we review reported IC50 values for a set of compounds.

Quick one: IC50 of "CN1CCOCCOc2cc(Nc3ncc(F)c(-c4ccc(C(=O)NCC#N)cc4)n3)ccc2OCC1" ?
< 100 nM

Continuing:
Quick one: IC50 of "COc1ccc(F)cc1-c1nc(Nc2ccc3c(c2)OCCN(C)CCOCCO3)ncc1F" ?
100 to 1000 nM

Quick one: IC50 of "CN1CCOCCOc2ccc(Nc3ncc(F)c(-c4ccc(C(=O)NCC#N)cc4)n3)cc2OCC1" ?
< 100 nM

###

target: endogenous phosphorylated LRRK2 (S935) (Homo sapiens); construct: Detection of endogenous phosphorylated LRRK2 (S935) in A549 cells; endogenous in cells; host or cells: A549; test: detection of endogenous phosphorylated LRRK2 (S935) in A549 cells (Western blot); assay type: cell-based; conditions: at 2 µM, LRRK2 (S935) activity in A549 cells, 15 hours; read-out: Inhibition rate
In this section we review reported inhibition at 2 µM values for a set of compounds.

Before answering, review these 5 worked examples.
Quick one: inhibition at 2 µM of "CN1CCOCCOc2ccc(Nc3ncc(C(F)(F)F)c(NCCS(C)(=O)=O)n3)cc2OCC1" ?
40 to 79%

Quick one: inhibition at 2 µM of "CN1CCOc2ccc(Nc3ncc(C(F)(F)F)c(NCC(C)(C)O)n3)cc2OCC1" ?
> 80%

Quick one: inhibition at 2 µM of "CN1CCOc2ccc(Nc3ncc(C(F)(F)F)c(NC[C@@H]4CCO4)n3)cc2OCC1" ?
40 to 79%

Quick one: inhibition at 2 µM of "CN1CCOCCOc2ccc(Nc3ncc(C(F)(F)F)c(NC[C@@H]4CCO4)n3)cc2OCC1" ?
> 80%

Quick one: inhibition at 2 µM of "CN1CCOCCOc2ccc(Nc3nc(NCC(C)(C)O)c4cc[nH]c4n3)cc2OCC1" ?
> 80%

Continuing:
Quick one: inhibition at 2 µM of "CN1CCOCCOc2ccc(Nc3ncc(C(F)(F)F)c(O[C@H]4CC[C@@](C)(O)CC4)n3)cc2OCC1" ?
> 80%

###

In this section we review reported inhibition at 0.1 µM values for a set of molecules.
target: JAK1 (Homo sapiens, UniProt P23458); experiment: experiment of inhibiting kinase activity (Caliper mobility shift assay), JAK1; type: biochemical; conditions: at 100 nM; read-out: inhibition rate JAK1
Sequence (P23458 whole entry): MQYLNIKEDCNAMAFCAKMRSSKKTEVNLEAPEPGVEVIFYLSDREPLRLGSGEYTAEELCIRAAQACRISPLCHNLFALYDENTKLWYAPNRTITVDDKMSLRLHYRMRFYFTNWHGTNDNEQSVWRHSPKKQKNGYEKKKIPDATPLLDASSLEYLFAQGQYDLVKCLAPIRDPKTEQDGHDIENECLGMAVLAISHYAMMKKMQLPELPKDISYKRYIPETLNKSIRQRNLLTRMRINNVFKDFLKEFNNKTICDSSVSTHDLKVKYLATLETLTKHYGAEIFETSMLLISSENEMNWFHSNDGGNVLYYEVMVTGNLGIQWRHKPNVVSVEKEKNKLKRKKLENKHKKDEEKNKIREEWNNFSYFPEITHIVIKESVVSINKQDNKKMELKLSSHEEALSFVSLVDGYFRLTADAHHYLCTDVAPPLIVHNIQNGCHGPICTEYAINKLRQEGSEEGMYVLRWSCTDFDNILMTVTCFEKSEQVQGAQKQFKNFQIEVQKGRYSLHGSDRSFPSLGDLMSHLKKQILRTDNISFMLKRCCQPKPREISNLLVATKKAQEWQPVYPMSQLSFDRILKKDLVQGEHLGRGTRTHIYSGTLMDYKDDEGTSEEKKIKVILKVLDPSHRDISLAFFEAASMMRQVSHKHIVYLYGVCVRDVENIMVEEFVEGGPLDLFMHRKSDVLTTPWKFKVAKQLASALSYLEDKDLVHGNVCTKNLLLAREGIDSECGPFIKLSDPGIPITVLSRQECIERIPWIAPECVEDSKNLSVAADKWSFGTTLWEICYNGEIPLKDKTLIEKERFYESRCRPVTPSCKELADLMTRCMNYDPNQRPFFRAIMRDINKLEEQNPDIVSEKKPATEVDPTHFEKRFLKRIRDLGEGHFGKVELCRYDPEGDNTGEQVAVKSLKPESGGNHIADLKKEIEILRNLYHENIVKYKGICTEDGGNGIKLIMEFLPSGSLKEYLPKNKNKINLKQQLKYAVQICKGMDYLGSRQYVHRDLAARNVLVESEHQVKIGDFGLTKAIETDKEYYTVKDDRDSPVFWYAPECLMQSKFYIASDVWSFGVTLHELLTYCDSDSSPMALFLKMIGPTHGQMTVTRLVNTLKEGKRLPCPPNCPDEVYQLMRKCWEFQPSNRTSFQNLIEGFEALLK

Before answering, review these 3 worked examples.
Quick one: inhibition at 0.1 µM of "CN1CCOCCOc2cc(Nc3ncc(F)c(-c4ccc(C(=O)NCC#N)cc4)n3)ccc2OCC1" ?
40 to 79%

Quick one: inhibition at 0.1 µM of "CC(C)S(=O)(=O)c1ccccc1Nc1nc(Nc2ccc3c(c2)OCCOCCN(S(C)(=O)=O)CCO3)nc2[nH]ccc12" ?
40 to 79%

Quick one: inhibition at 0.1 µM of "CCS(=O)(=O)N1CC(CC#N)(n2cc(-c3nc(Nc4ccc5c(c4)OCCN(C)CCO5)nc4[nH]ncc34)cn2)C1" ?
> 80%

Lab note: next molecule to report on.
Quick one: inhibition at 0.1 µM of "CN1CCOCCOc2ccc(Nc3ncc(F)c(-c4ccc(C(=O)NCC#N)cc4)n3)cc2OCC1" ?
> 80%

###

target: CDK7 (Homo sapiens); assay: experiment of inhibiting kinase activity (Caliper mobility shift assay), CDK7; format: biochemical; details: at 10 nM; read-out: inhibition rate CDK7
Sequence (P50613 whole entry, species assumed): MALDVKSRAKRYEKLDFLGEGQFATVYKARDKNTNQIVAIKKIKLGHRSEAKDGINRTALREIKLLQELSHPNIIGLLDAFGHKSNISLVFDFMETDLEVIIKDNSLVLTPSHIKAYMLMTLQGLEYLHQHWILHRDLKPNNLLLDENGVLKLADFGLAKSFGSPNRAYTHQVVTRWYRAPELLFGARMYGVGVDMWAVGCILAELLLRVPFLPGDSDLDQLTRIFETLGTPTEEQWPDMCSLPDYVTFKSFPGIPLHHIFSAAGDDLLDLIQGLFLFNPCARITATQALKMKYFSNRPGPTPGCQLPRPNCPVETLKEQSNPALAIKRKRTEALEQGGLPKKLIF
Sequence (P51946 whole entry partner, species assumed): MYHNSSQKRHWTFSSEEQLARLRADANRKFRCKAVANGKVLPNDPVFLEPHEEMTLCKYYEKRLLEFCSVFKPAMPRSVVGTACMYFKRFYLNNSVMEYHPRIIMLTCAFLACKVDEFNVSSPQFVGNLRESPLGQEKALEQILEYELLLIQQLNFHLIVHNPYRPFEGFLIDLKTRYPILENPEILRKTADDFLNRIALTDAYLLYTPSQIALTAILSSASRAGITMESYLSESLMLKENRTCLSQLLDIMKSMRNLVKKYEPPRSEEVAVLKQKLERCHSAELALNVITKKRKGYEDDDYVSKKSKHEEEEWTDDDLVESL
Sequence (P51948 whole entry partner, species assumed): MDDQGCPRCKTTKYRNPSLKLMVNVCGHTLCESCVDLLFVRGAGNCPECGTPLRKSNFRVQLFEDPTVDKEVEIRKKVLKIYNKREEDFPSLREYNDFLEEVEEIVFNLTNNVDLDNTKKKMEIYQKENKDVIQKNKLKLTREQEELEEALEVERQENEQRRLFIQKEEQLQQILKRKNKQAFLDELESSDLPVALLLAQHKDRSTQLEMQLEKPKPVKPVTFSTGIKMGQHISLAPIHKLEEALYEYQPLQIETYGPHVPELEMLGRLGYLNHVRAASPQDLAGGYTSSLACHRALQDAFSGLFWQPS
In this section we review reported inhibition at 0.01 µM values for a set of compounds.

Quick one: inhibition at 0.01 µM of "CC(C)S(=O)(=O)c1ccccc1Nc1nc(Nc2ccc3c(c2)OCCOCCN(C)CCO3)nc2[nH]cnc12" ?
> 80%

Continuing:
Quick one: inhibition at 0.01 µM of "CC(C)S(=O)(=O)c1ccccc1Nc1nc(Nc2ccc3c(c2)OCCOCCN(C)CCO3)nc2[nH]ccc12" ?
40 to 79%

Quick one: inhibition at 0.01 µM of CN1CCOCCOc2ccc(Nc3ncc(F)c(-c4cnn(C(CC#N)C5CCCC5)c4)n3)cc2OCC1 (stereo not shown) ?
25 to 39%

Quick one: inhibition at 0.01 µM of "C=CC(=O)Nc1cc(C)ccc1Nc1nc(Nc2ccc3c(c2)OCCN(C)CCO3)ncc1C(F)(F)F" ?
40 to 79%

Quick one: inhibition at 0.01 µM of "CC(C)S(=O)(=O)c1ccccc1Nc1nc(Nc2ccc3c(c2)OCCOCCNCCO3)nc2[nH]ccc12" ?
40 to 79%

Quick one: inhibition at 0.01 µM of "CN1CCOCCOc2cc(Nc3ncc(F)c(-c4ccc(C(=O)NCC#N)cc4)n3)ccc2OCC1" ?
25 to 39%

Quick one: inhibition at 0.01 µM of "CC(C)S(=O)(=O)c1ccccc1Nc1nc(Nc2ccc3c(c2)OCCOCCN(S(C)(=O)=O)CCO3)nc2[nH]ccc12" ?
40 to 79%

###

molecular target: JAK2 (Homo sapiens, UniProt O60674); assay: experiment of inhibiting kinase activity (Caliper mobility shift assay), JAK2; format: biochemical; conditions: at 10 nM; read-out: inhibition rate JAK2
Sequence (O60674 whole entry): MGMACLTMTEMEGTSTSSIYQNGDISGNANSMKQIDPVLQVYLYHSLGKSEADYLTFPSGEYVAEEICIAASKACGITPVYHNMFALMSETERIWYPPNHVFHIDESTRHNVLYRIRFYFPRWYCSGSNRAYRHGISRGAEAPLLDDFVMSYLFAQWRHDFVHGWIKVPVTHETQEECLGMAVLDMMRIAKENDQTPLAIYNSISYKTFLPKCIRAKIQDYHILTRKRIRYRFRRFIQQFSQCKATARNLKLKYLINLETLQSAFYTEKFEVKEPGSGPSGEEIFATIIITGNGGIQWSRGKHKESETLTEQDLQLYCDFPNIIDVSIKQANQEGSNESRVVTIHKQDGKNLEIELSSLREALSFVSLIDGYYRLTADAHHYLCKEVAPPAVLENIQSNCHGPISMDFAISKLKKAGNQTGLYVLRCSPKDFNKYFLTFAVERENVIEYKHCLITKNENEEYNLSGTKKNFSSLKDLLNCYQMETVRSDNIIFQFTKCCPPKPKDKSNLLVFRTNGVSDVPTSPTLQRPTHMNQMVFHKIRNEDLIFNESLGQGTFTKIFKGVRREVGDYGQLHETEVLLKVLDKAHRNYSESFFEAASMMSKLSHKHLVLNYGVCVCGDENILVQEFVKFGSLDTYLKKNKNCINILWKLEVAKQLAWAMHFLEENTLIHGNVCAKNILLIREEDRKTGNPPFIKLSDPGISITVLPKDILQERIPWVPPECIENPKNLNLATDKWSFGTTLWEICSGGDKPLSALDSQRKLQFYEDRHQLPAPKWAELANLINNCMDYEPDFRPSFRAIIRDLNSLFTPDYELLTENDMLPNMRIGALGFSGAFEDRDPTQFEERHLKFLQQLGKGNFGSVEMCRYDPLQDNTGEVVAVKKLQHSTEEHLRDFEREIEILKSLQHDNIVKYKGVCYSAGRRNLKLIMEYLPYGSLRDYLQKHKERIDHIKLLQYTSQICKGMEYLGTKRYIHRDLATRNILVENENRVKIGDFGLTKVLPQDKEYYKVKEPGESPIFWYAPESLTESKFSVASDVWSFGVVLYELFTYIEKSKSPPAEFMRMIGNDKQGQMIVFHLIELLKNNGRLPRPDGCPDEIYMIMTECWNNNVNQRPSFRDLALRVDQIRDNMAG
measurement.type: inhibition at 0.01 µM

Before answering, review these 4 worked examples.
Quick one: inhibition at 0.01 µM of "CC(C)S(=O)(=O)c1ccccc1Nc1nc(Nc2ccc3c(c2)OCCOCCN(C)CCO3)nc2[nH]ncc12" ?
40 to 79%

Quick one: inhibition at 0.01 µM of "CCS(=O)(=O)N1CC(CC#N)(n2cc(-c3nc(Nc4ccc5c(c4)OCCN(C)CCOCCO5)nc4[nH]ncc34)cn2)C1" ?
> 80%

Quick one: inhibition at 0.01 µM of "CCS(=O)(=O)N1CC(CC#N)(n2cc(-c3nc(Nc4ccc5c(c4)OCCN(C)CCO5)nc4[nH]ccc34)cn2)C1" ?
> 80%

Quick one: inhibition at 0.01 µM of CN1CCOc2ccc(Nc3ncc(F)c(-c4cnn(C(CC#N)C5CCCC5)c4)n3)cc2OCC1 (stereo not drawn) ?
40 to 79%

Continuing:
Quick one: inhibition at 0.01 µM of "CN1CCOCCOc2ccc(Nc3nc(Nc4cccc(S(=O)(=O)NC(C)(C)C)c4)c4cc[nH]c4n3)cc2OCC1" ?
40 to 79%

Quick one: inhibition at 0.01 µM of "CN1CCOCCOc2ccc(Nc3ncc(F)c(-c4cn(C)c5ccccc45)n3)cc2OCC1" ?
40 to 79%

Quick one: inhibition at 0.01 µM of "CN1CCOc2ccc(Nc3ncc(F)c(-c4ccc(C(=O)NCC#N)cc4)n3)cc2OCC1" ?
40 to 79%

###

molecular target: JAK1 (Homo sapiens, UniProt P23458); assay: experiment of inhibiting kinase activity (Caliper mobility shift assay), JAK1; format: biochemical; conditions: at 100 nM; read-out: inhibition rate JAK1
In this section we review reported inhibition at 0.1 µM values for a set of compounds.

Before answering, review these 5 worked examples.
Kindly state the measured inhibition at 0.1 µM obtained for "CCS(=O)(=O)N1CC(CC#N)(n2cc(-c3nc(Nc4ccc5c(c4)OCCN(C)CCO5)nc4[nH]ccc34)cn2)C1" with JAK1 (Homo sapiens, UniProt P23458).
> 80%

Kindly state the measured inhibition at 0.1 µM obtained for "CN1CCOCCOc2ccc(Nc3ncc(F)c(Nc4cccc(S(=O)(=O)NC(C)(C)C)c4)n3)cc2OCC1" with JAK1 (Homo sapiens, UniProt P23458).
25 to 39%

Kindly state the measured inhibition at 0.1 µM obtained for "CCS(=O)(=O)N1CC(CC#N)(n2cc(-c3nc(Nc4ccc5c(c4)OCCN(C)CCO5)ncc3F)cn2)C1" with JAK1 (Homo sapiens, UniProt P23458).
40 to 79%

Kindly state the measured inhibition at 0.1 µM obtained for CN1CCOc2ccc(Nc3ncc(F)c(-c4cnn(C(CC#N)C5CCCC5)c4)n3)cc2OCC1 (stereo not shown) with JAK1 (Homo sapiens, UniProt P23458).
40 to 79%

Kindly state the measured inhibition at 0.1 µM obtained for CN1CCOCCOc2cc(Nc3nc(-c4cnn(C(CC#N)C5CCCC5)c4)c4cc[nH]c4n3)ccc2OCC1 (stereo not shown) with JAK1 (Homo sapiens, UniProt P23458).
> 80%

Continuing:
Kindly state the measured inhibition at 0.1 µM obtained for "CN1CCOc2ccc(Nc3ncc(F)c(Nc4cccc(S(=O)(=O)NC(C)(C)C)c4)n3)cc2OCC1" with JAK1 (Homo sapiens, UniProt P23458).
25 to 39%

Kindly state the measured inhibition at 0.1 µM obtained for "CC(C)S(=O)(=O)c1ccccc1Nc1nc(Nc2ccc3c(c2)OCCOCCNCCO3)nc2[nH]ccc12" with JAK1 (Homo sapiens, UniProt P23458).
40 to 79%
